TESTED TARGET: SARS-CoV-2 PLpro-NAB (Severe acute respiratory syndrome coronavirus 2)
METHOD SUMMARY: biochemical
ASSAY CONTEXT: HP PLpro-NAB SARS-CoV-2 IC50 [µM] duplicates L-CYS BUFFER
MEASURED ENDPOINT: IC50

*Q* Could you share what IC50 was measured for CC(C)Nc1cccnc1N1CCN(C(=O)c2cc3cc(NS(C)(=O)=O)ccc3[nH]2)CC1 [Delavirdine (mesylate), Delavirdine] , tested on SARS-CoV-2 PLpro-NAB (Severe acute respiratory syndrome coronavirus 2)?
*A* > 20 µM

====

TESTED TARGET: SARS-CoV-2 PLpro-NAB (Severe acute respiratory syndrome coronavirus 2, UniProt P0DTD1)
METHOD SUMMARY: biochemical
ASSAY CONTEXT: Table S1; DTT buffer; read-out: HP PLpro-NAB SARS-CoV-2 IC50 [µM] triplicates DTT BUFFER
// map IC50 onto a label; ranges low bin: < 0.4 µM; mid bin: ≥ 0.4 µM and < 10 µM; high bin: ≥ 10 µM

>>> category("C[n+]1c2cc(N)ccc2cc2ccc(N)cc21.[Cl-] [Acriflavinium Hydrochloride]")
"high bin"
>>> category("COCCn1c2c([n+](Cc3cnccn3)c1C)C(=O)c1ccccc1C2=O [YM-155]")
"high bin"
>>> category("Cc1nc2c(=O)n(C)c(=O)nc-2n(C)n1 [3-Methyl Toxoflavin]")
"low bin"
>>> category("Cc1cc(-c2ccc(/C=C3/SC(=Nc4ccc(Cl)c(C(=O)O)c4)NC3=O)o2)c([N+](=O)[O-])cc1C [PT 1]")
"mid bin"
>>> category("Nc1ccc(O)c2ncccc12 [PD119507]")
"low bin"

*Q* Textbook exercise: identify the category of the compound given here, Cc1cc(-c2ccc(/N=N/c3ccc4c(S(=O)(=O)O)cc(S(=O)(=O)O)c(N)c4c3O)c(C)c2)ccc1/N=N/c1ccc2c(S(=O)(=O)O)cc(S(=O)(=O)O)c(N)c2c1O [Evans Blue] , according to its measured value.
*A* mid bin

====

TESTED TARGET: SARS-CoV-2 PLpro-NAB (Severe acute respiratory syndrome coronavirus 2, UniProt P0DTD1)
METHOD SUMMARY: biochemical
ASSAY CONTEXT: Table S1; 20 µM; DTT buffer; average (SD); read-out: HC PLpro-NAB SARS-CoV-2 inhibition [%] 20 µM triplicates DTT BUFFER
MEASURED ENDPOINT: inhibition at 20 µM (%)
Numbers only, in %.

# example entries with known answers
>>> observed_result("Cc1cccc2c3c(ccc12)C1=C(C(=O)C3=O)[C@@H](C)CO1 [Dihydrotanshinone I]")
80.7
>>> observed_result("Cc1cc(-c2ccc(/N=N/c3ccc4c(S(=O)(=O)O)cc(S(=O)(=O)O)c(N)c4c3O)c(C)c2)ccc1/N=N/c1ccc2c(S(=O)(=O)O)cc(S(=O)(=O)O)c(N)c2c1O")
126
>>> observed_result("O=C1C=CC(=O)c2c(O)cccc21")
83.7
>>> observed_result("CC[n+]1c(-c2ccccc2)c2cc(N)ccc2c2ccc(N)cc21 [Homidium Bromide]")
149
>>> observed_result("COCCn1c2c([n+](Cc3cnccn3)c1C)C(=O)c1ccccc1C2=O")
139

Hey, quick one: what's inhibition at 20 µM for each of these?
1. C[C@H]1COC2=C1C(=O)C(=O)c1c2ccc2c1CCCC2(C)C
2. CC1(C)CCC2=C(O1)c1ccccc1C(=O)C2=O

*A*
40.7
175

====

TESTED TARGET: SARS-CoV-2 PLpro-NAB (Severe acute respiratory syndrome coronavirus 2, UniProt P0DTD1)
METHOD SUMMARY: biochemical
ASSAY CONTEXT: Table S1; 20 µM; L-cysteine buffer; average (SD)
MEASURED ENDPOINT: HP PLpro-NAB SARS-CoV-2 inhibition [%] 20 µM triplicates L-CYS BUFFER

>>> observed_result("C[n+]1c2cc(N)ccc2cc2ccc(N)cc21.[Cl-] [Acriflavinium Hydrochloride]")
"-99.55 (4.20) %"
>>> observed_result("Cc1cc(-c2ccc(/C=C3/SC(=Nc4ccc(Cl)c(C(=O)O)c4)NC3=O)o2)c([N+](=O)[O-])cc1C [PT 1]")
"-36.09 (5.10) %"
>>> observed_result("CC1(C)CCC2=C(O1)C(=O)c1ccccc1C2=O [Alpha Lapachone]")
"-6.97 (8.44) %"
>>> observed_result("NC(Cc1cc(O)c(O)cc1O)C(=O)O (racemic) [6-Hydroxy-DL-DOPA]")
"4.81 (4.61) %"
>>> observed_result("Cc1nc2c(=O)n(C)c(=O)nc-2n(C)n1 [3-Methyl Toxoflavin]")
"-26.71 (3.86) %"

Hey, quick one: what's HP PLpro-NAB SARS-CoV-2 inhibition [%] 20 µM triplicates L-CYS BUFFER for each of these?
1. CN(C)CCNc1nc2cc(O)ccc2c2c1C(=O)c1ccccc1-2.Cl.Cl [TAS-103 (dihydrochloride)]
2. Cn1cccc1/C=C1\C(=O)NC(=O)c2ccccc21 [BYK-204165]

*A*
1: 17.75 (9.12) %; 2: 7.10 (11.9) %

====

TESTED TARGET: SARS-CoV-2 PLpro-NAB (Severe acute respiratory syndrome coronavirus 2)
METHOD SUMMARY: biochemical
ASSAY CONTEXT: HP PLpro-NAB SARS-CoV-2 IC50 [µM] triplicates DTT BUFFER, Table S1; DTT buffer
MEASURED ENDPOINT: IC50

*Q* Could you share what IC50 was measured for Oc1c(Cl)cc(Cl)c(Cl)c1Cc1c(O)c(Cl)cc(Cl)c1Cl , tested on SARS-CoV-2 PLpro-NAB (Severe acute respiratory syndrome coronavirus 2)?
*A* > 20 µM

====

TESTED TARGET: SARS-CoV-2 PLpro-NAB (Severe acute respiratory syndrome coronavirus 2, UniProt P0DTD1)
METHOD SUMMARY: biochemical
ASSAY CONTEXT: HP PLpro-NAB SARS-CoV-2 IC50 [µM] triplicates DTT BUFFER
MEASURED ENDPOINT: IC50

*Q* Need IC50, item CC(C)Nc1cccnc1N1CCN(C(=O)c2cc3cc(NS(C)(=O)=O)ccc3[nH]2)CC1 [Delavirdine (mesylate), Delavirdine]
*A* > 20 µM

====

TESTED TARGET: SARS-CoV-2 PLpro-NAB (Severe acute respiratory syndrome coronavirus 2)
METHOD SUMMARY: biochemical
ASSAY CONTEXT: Table S1; 20 µM; L-cysteine buffer; average (SD)
Hi there, I'd appreciate the recorded HP PLpro-NAB SARS-CoV-2 inhibition [%] 20 µM triplicates L-CYS BUFFER for every entry that follows.

>>> observed_result("CCOC(=O)C1=C(C)N=c2sc(=Cc3ccc(OCC(=O)O)cc3)c(=O)n2C1c1ccc(SC)cc1 (centres unmarked) [ML120]")
"-56.07 (10.54) %"
>>> observed_result("COc1cccc2c(NCc3ccccc3)nc(-n3c(N)nc4ccccc43)nc12 [ML240]")
"-11.93 (4.14) %"
>>> observed_result("CC[N+](C)(CC)CCC[n+]1c(-c2ccccc2)c2cc(N)ccc2c2ccc(N)cc21.[I-].[I-] [Propidium-Iodide]")
"14.90 (7.41) %"
>>> observed_result("Nc1ccc(O)c2ncccc12 [PD119507]")
"-16.42 (5.8) %"

*Q* Need HP PLpro-NAB SARS-CoV-2 inhibition [%] 20 µM triplicates L-CYS BUFFER, item CC1(C)C(=O)N=C2C1=C(O)C(=O)c1ccccc12 [BVT-948]
*A* -16.22 (16.3) %

====

TESTED TARGET: UniProtKB P0DTD1
METHOD SUMMARY: biochemical
ASSAY CONTEXT: Table S1; 20 µM; DTT buffer; average (SD)
Hi there, I'd appreciate the recorded HC PLpro-NAB SARS-CoV-2 inhibition [%] 20 µM triplicates DTT BUFFER for every entry that follows.

# example entries with known answers
>>> observed_result("CC[N+](C)(CC)CCC[n+]1c(-c2ccccc2)c2cc(N)ccc2c2ccc(N)cc21.[I-].[I-] [Propidium-Iodide]")
"135.55 (3.03) %"
>>> observed_result("NC(Cc1cc(O)c(O)cc1O)C(=O)O (racemic) [6-Hydroxy-DL-DOPA]")
"81.47 (1.21) %"
>>> observed_result("CC1(C)C(=O)N=C2C1=C(O)C(=O)c1ccccc12 [BVT-948]")
"154.88 (0.27) %"
>>> observed_result("COc1cccc2c(NCc3ccccc3)nc(-n3c(N)nc4ccccc43)nc12 [ML240]")
"93.76 (13.43) %"
>>> observed_result("Cc1nc2c(=O)n(C)c(=O)nc-2n(C)n1 [3-Methyl Toxoflavin]")
"181.38 (6.76) %"

Hey, quick one: what's HC PLpro-NAB SARS-CoV-2 inhibition [%] 20 µM triplicates DTT BUFFER for each of these?
1. Cc1cc(-c2ccc(/C=C3/SC(=Nc4ccc(Cl)c(C(=O)O)c4)NC3=O)o2)c([N+](=O)[O-])cc1C [PT 1]
2. Nc1ccc(O)c2ncccc12 [PD119507]
3. C[n+]1c2cc(N)ccc2cc2ccc(N)cc21.[Cl-] [Acriflavinium Hydrochloride]
4. CN(C)CCNc1nc2cc(O)ccc2c2c1C(=O)c1ccccc1-2.Cl.Cl [TAS-103 (dihydrochloride)]
5. Cn1cccc1/C=C1\C(=O)NC(=O)c2ccccc21 [BYK-204165]
6. CCOC(=O)C1=C(C)N=c2sc(=Cc3ccc(OCC(=O)O)cc3)c(=O)n2C1c1ccc(SC)cc1 (stereo not drawn) [ML120]
7. CC1(C)CCC2=C(O1)C(=O)c1ccccc1C2=O [Alpha Lapachone]

*A*
["87.07 (2.59) %", "186.40 (4.35) %", "27.57 (6.10) %", "154.91 (1.47) %", "137.58 (2.88) %", "82.78 (2.58) %", "146.26 (3.11) %"]

Just for reference, paper PMC11729419 is where these values come from.
